Assay: in vivo
Parameters: species or system mice
Details: male, SCID, mouse, iv, total radioactivity, Tumor/Heart ratio
Residues, ends and D or L forms follow the SMILES beside them. *: point of attachment. DOTA = O=C(O)CN1CCN(CC(=O)O)CCN(CC(=O)*)CCN(CC(=O)O)CC1; X1 = Cc1ccc(CCCC(=O)NCCOCCOCCOCCOCC(=O)*)cc1; βAla = NCCC(=O)O
OUTCOME MEASURE: tissue to tissue ratio at 1 h
Write the number on its own, no unit after it.

Please report the recorded tissue to tissue ratio at 1 h for CC[C@H](C)[C@H](NC(=O)[C@H](Cc1ccc(O)cc1)NC(=O)[C@@H]1CCCN1C(=O)[C@H](CCCNC(=N)N)NC(=O)[C@H](CCCNC(=N)N)NC(=O)[C@H](CCCCNC(=O)COCCOCCOCCOCCNC(=O)CCCc1ccc(C)cc1)NC(=O)CCNC(=O)CCNC(=O)CCNC(=O)CN1CCN(CC(=O)O)CCN(CC(=O)O)CCN(CC(=O)O)CC1)C(=O)N[C@@H](CC(C)C)C(=O)O [[^67Ga]Ga-DT14D, metal not drawn] ({DOTA-βAla-βAla-βAla}-K(X1)RRPYIL-OH) .
3.99

====

Assay: in vivo
Set-up: species or system mice
Conditions: male, SCID, mouse, iv, 730 kBq, total radioactivity, Tumor/Kidneys ratio
Residues, ends and D or L forms follow the SMILES beside them. *: point of attachment. DOTA = O=C(O)CN1CCN(CC(=O)O)CCN(CC(=O)*)CCN(CC(=O)O)CC1; X1 = Cc1ccc(CCCC(=O)NCCOCCOCCOCCOCC(=O)*)cc1; βAla = NCCC(=O)O
OUTCOME MEASURE: tissue to tissue ratio at 48 h
Please state the value as a number alone, without comment.

Request the reported tissue to tissue ratio at 48 h associated with CC[C@H](C)[C@H](NC(=O)[C@H](Cc1ccc(O)cc1)NC(=O)[C@@H]1CCCN1C(=O)[C@H](CCCNC(=N)N)NC(=O)[C@H](CCCNC(=N)N)NC(=O)[C@H](CCCCNC(=O)COCCOCCOCCOCCNC(=O)CCCc1ccc(C)cc1)NC(=O)CCNC(=O)CCNC(=O)CCNC(=O)CN1CCN(CC(=O)O)CCN(CC(=O)O)CCN(CC(=O)O)CC1)C(=O)N[C@@H](CC(C)C)C(=O)O [[^177Lu]Lu-DT14D, metal not drawn] ({DOTA-βAla-βAla-βAla}-K(X1)RRPYIL-OH)
1.78

====

Assay: in vivo
Design: species or system mice
Settings: male, SCID, mouse, iv, 730 kBq, total radioactivity, Biodistribution, Kidneys
Residues, ends and D or L forms follow the SMILES beside them. *: point of attachment. DOTA = O=C(O)CN1CCN(CC(=O)O)CCN(CC(=O)*)CCN(CC(=O)O)CC1; X1 = Cc1ccc(CCCC(=O)NCCOCCOCCOCCOCC(=O)*)cc1; βAla = NCCC(=O)O
OUTCOME MEASURE: tissue uptake at 72 h (%ID/g)
API: value field is a number in %ID/g; no unit string.

I am curious: what tissue uptake at 72 h value has been reported for CC[C@H](C)[C@H](NC(=O)[C@H](Cc1ccc(O)cc1)NC(=O)[C@@H]1CCCN1C(=O)[C@H](CCCNC(=N)N)NC(=O)[C@H](CCCNC(=N)N)NC(=O)[C@H](CCCCNC(=O)COCCOCCOCCOCCNC(=O)CCCc1ccc(C)cc1)NC(=O)CCNC(=O)CCNC(=O)CCNC(=O)CN1CCN(CC(=O)O)CCN(CC(=O)O)CCN(CC(=O)O)CC1)C(=O)N[C@@H](CC(C)C)C(=O)O [[^177Lu]Lu-DT14D, metal not drawn] ({DOTA-βAla-βAla-βAla}-K(X1)RRPYIL-OH) ?
0.57

====

Assay: in vivo
Set-up: species or system mice
Details: male, SCID, mouse, iv, 730 kBq, total radioactivity, Biodistribution, Spleen
Residues, ends and D or L forms follow the SMILES beside them. *: point of attachment. DOTA = O=C(O)CN1CCN(CC(=O)O)CCN(CC(=O)*)CCN(CC(=O)O)CC1; X1 = Cc1ccc(CCCC(=O)NCCOCCOCCOCCOCC(=O)*)cc1; βAla = NCCC(=O)O
OUTCOME MEASURE: tissue uptake at 48 h (%ID/g)
Numbers only here, please. The scale is %ID/g.

// query tissue uptake at 48 h value for entry CC[C@H](C)[C@H](NC(=O)[C@H](Cc1ccc(O)cc1)NC(=O)[C@@H]1CCCN1C(=O)[C@H](CCCNC(=N)N)NC(=O)[C@H](CCCNC(=N)N)NC(=O)[C@H](CCCCNC(=O)COCCOCCOCCOCCNC(=O)CCCc1ccc(C)cc1)NC(=O)CCNC(=O)CCNC(=O)CCNC(=O)CN1CCN(CC(=O)O)CCN(CC(=O)O)CCN(CC(=O)O)CC1)C(=O)N[C@@H](CC(C)C)C(=O)O [[^177Lu]Lu-DT14D, metal not drawn] ({DOTA-βAla-βAla-βAla}-K(X1)RRPYIL-OH)
1.6

====

Experiment: in vivo
Set-up: species or system mice
Details: male, SCID, mouse, iv, total radioactivity, Tumor/Liver ratio
Residues, ends and D or L forms follow the SMILES beside them. *: point of attachment. DOTA = O=C(O)CN1CCN(CC(=O)O)CCN(CC(=O)*)CCN(CC(=O)O)CC1; X1 = Cc1ccc(CCCC(=O)NCCOCCOCCOCCOCC(=O)*)cc1; βAla = NCCC(=O)O
OUTCOME MEASURE: tissue to tissue ratio at 1 h

Suppose we examine the molecule CC[C@H](C)[C@H](NC(=O)[C@H](Cc1ccc(O)cc1)NC(=O)[C@@H]1CCCN1C(=O)[C@H](CCCNC(=N)N)NC(=O)[C@H](CCCNC(=N)N)NC(=O)[C@H](CCCCNC(=O)COCCOCCOCCOCCNC(=O)CCCc1ccc(C)cc1)NC(=O)CCNC(=O)CCNC(=O)CCNC(=O)CN1CCN(CC(=O)O)CCN(CC(=O)O)CCN(CC(=O)O)CC1)C(=O)N[C@@H](CC(C)C)C(=O)O [[^67Ga]Ga-DT14D, metal not drawn] ({DOTA-βAla-βAla-βAla}-K(X1)RRPYIL-OH) ; what tissue to tissue ratio at 1 h value has been reported?
3.05

====

Test: in vivo
Design: species or system mice
Conditions: male, SCID, mouse, iv, 730 kBq, total radioactivity, Biodistribution, Muscle
Residues, ends and D or L forms follow the SMILES beside them. *: point of attachment. DOTA = O=C(O)CN1CCN(CC(=O)O)CCN(CC(=O)*)CCN(CC(=O)O)CC1; X1 = Cc1ccc(CCCC(=O)NCCOCCOCCOCCOCC(=O)*)cc1; βAla = NCCC(=O)O
OUTCOME MEASURE: tissue uptake at 72 h (%ID/g)
The reply should be a number in %ID/g, with the unit left off.

// tissue uptake at 72 h lookup, key: CC[C@H](C)[C@H](NC(=O)[C@H](Cc1ccc(O)cc1)NC(=O)[C@@H]1CCCN1C(=O)[C@H](CCCNC(=N)N)NC(=O)[C@H](CCCNC(=N)N)NC(=O)[C@H](CCCCNC(=O)COCCOCCOCCOCCNC(=O)CCCc1ccc(C)cc1)NC(=O)CCNC(=O)CCNC(=O)CCNC(=O)CN1CCN(CC(=O)O)CCN(CC(=O)O)CCN(CC(=O)O)CC1)C(=O)N[C@@H](CC(C)C)C(=O)O [[^177Lu]Lu-DT14D, metal not drawn] ({DOTA-βAla-βAla-βAla}-K(X1)RRPYIL-OH)
0.04

====

Test: in vivo
Set-up: species or system mice
Conditions: male, SCID, mouse, iv, 730 kBq, total radioactivity, Biodistribution, Stomach
Residues, ends and D or L forms follow the SMILES beside them. *: point of attachment. DOTA = O=C(O)CN1CCN(CC(=O)O)CCN(CC(=O)*)CCN(CC(=O)O)CC1; X1 = Cc1ccc(CCCC(=O)NCCOCCOCCOCCOCC(=O)*)cc1; βAla = NCCC(=O)O
OUTCOME MEASURE: tissue uptake at 48 h (%ID/g)
Kindly provide the numeric value in %ID/g only, without the unit symbol.

May I ask what tissue uptake at 48 h has been recorded for CC[C@H](C)[C@H](NC(=O)[C@H](Cc1ccc(O)cc1)NC(=O)[C@@H]1CCCN1C(=O)[C@H](CCCNC(=N)N)NC(=O)[C@H](CCCNC(=N)N)NC(=O)[C@H](CCCCNC(=O)COCCOCCOCCOCCNC(=O)CCCc1ccc(C)cc1)NC(=O)CCNC(=O)CCNC(=O)CCNC(=O)CN1CCN(CC(=O)O)CCN(CC(=O)O)CCN(CC(=O)O)CC1)C(=O)N[C@@H](CC(C)C)C(=O)O [[^177Lu]Lu-DT14D, metal not drawn] ({DOTA-βAla-βAla-βAla}-K(X1)RRPYIL-OH) ?
0.07
